# ASSAY_SYSTEM: T1, biotinylated cyno IL-33 (cynomolgus monkey, UniProt A0A2K5W3I1 112-269, biotin-labeled with EZ-LINK NHS-PEG4-Biotin)
# T1 construct: also called biotin-cyIL-33
# T1 sequence: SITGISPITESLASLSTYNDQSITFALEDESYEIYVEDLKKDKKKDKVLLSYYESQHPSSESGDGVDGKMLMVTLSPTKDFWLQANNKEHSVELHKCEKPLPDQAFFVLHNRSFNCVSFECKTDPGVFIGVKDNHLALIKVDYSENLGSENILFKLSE
# PROCEDURE_DETAILS: competitive ELISA, biotin-cyIL-33 to coated hST2-Fc
Assign pIC50 to each entry below.
In simple prose, pIC50 is minus the logarithm base ten of a concentration in moles per litre.

// query What pIC50 value was documented for this binder, H4H9640P (antibody, IgG4, V domains shown, also called RG6) VH: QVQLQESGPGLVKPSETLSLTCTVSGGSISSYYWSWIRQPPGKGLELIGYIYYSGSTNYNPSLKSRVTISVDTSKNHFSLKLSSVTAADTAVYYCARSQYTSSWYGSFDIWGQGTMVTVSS VL: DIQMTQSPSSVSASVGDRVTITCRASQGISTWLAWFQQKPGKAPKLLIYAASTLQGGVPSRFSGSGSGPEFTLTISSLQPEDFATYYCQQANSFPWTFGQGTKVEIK ?
// result 7.35

// query And then H4H9662P (antibody, V domains shown) VH: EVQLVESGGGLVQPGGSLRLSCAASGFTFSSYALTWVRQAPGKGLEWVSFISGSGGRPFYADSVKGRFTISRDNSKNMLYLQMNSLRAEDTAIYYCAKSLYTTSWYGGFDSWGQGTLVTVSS VL: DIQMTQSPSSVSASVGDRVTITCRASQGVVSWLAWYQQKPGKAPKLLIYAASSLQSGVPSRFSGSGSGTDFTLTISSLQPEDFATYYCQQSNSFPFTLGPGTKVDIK , what is it?
// result 7.18

// query Can you check H4H9670P (antibody, V domains shown) VH: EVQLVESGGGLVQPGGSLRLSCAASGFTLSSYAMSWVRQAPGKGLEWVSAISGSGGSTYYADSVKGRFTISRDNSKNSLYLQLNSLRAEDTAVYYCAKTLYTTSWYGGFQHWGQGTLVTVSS VL: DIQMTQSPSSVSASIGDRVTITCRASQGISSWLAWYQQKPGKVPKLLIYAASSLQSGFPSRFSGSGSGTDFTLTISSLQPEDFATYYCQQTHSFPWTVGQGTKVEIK next?
// result 6.82
